Entries and their measured IC50 follow.
System: 171881-019-R-J1-PDC tumor spheroid viability
test: Anticancer human tumor 171881-019-R-J1-PDC patient-derived invasive breast carcinoma cell line growth inhibition [PI3K]
test.settings: curve of first compound; second compound 0.01 µM; spheroids with HUVEC and MSC
assay.endpoint: IC50 (µM)

| compound | qualifier.sign | value |
| --- | --- | --- |
| CC1(C)CCC(Nc2ncc(C(F)(F)F)c(-c3c[nH]c4c(P(C)(C)=O)c(C#N)ccc34)n2)CN1 (stereo not given) + CC(Nc1ccc2c(c1)OCCn1cc(N3C(=O)OCC3C(F)F)nc1-2)C(N)=O | = | 4.48 |
| C[C@@H](NC(=O)c1ncnc(N)c1Cl)c1ncc(C(=O)Nc2cc(C(F)(F)F)c(Cl)cn2)s1 + CC(Nc1ccc2c(c1)OCCn1cc(N3C(=O)OCC3C(F)F)nc1-2)C(N)=O | = | 2.62 |
| CC(C)NCC(C(=O)N1CCN(c2ncnc3c2C(C)CC3O)CC1)c1ccc(Cl)cc1 (stereo not given) + CC(Nc1ccc2c(c1)OCCn1cc(N3C(=O)OCC3C(F)F)nc1-2)C(N)=O | = | 0.275 |
| CCCS(=O)(=O)Nc1ccc(F)c(C(=O)c2c[nH]c3ncc(-c4ccc(Cl)cc4)cc23)c1F + COc1c(OCCCN2CCOCC2)ccc2c3n(c(=NC(=O)c4cnc(N)nc4)nc12)CCN3 | = | 4.52 |
| CNC(=O)c1ccc(N2C(=S)N(c3ccc(C#N)c(C(F)(F)F)c3)C(=O)C2(C)C)cc1F + CC(Nc1ccc2c(c1)OCCn1cc(N3C(=O)OCC3C(F)F)nc1-2)C(N)=O | > | 10 |

----------
System: 171881-019-R-J1-PDC tumor spheroid viability
test: Anticancer human tumor 171881-019-R-J1-PDC cell line growth inhibition [PI3K];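 further: spheroids exposed to compound for 7 days before viability read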;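 on viability, T/C: 100% = DMSO vehicle-treated spheroids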
test.settings: second compound 0.1 µM; first compound 0.316 µM; stronger effect = lower value; spheroids with HUVEC and MSC
Text: Combinatorial screen of targeted agents with the PI3K inhibitors inavolisib, alpelisib, duvelisib, and copanlisib in multi-cell type tumor spheroids A high-throughput screen of multi-cell type tumor spheroids was designed to identify active combinations of targeted small molecules and PI3K pathway inhibitors. […] Compounds. […] If the clinical Cmax for an agent had not been determined, the highest concentration tested was 10 microM. […]
The entries below come with measured viability, T/C values attached.

| compound | assayed.system | viability, T/C, % |
| --- | --- | --- |
| CC1(C)CCC(CN2CCN(c3ccc(C(=O)NS(=O)(=O)c4ccc(NCC5CCOCC5)c([N+](=O)[O-])c4)c(Oc4cnc5[nH]ccc5c4)c3)CC2)=C(c2ccc(Cl)cc2)C1 + CC(Nc1ccc2c(c1)OCCn1cc(N3C(=O)OCC3C(F)F)nc1-2)C(N)=O | 171881-019-R-J1-PDC tumor spheroid viability | 40.6 |
| C[C@@H](NC(=O)c1ncnc(N)c1Cl)c1ncc(C(=O)Nc2cc(C(F)(F)F)c(Cl)cn2)s1 + Cc1nc(NC(=O)N2CCCC2C(N)=O)sc1-c1ccnc(C(C)(C)C(F)(F)F)c1 | 171881-019-R-J1-PDC tumor spheroid viability | 77.9 |
| C[C@@H](NC(=O)c1ncnc(N)c1Cl)c1ncc(C(=O)Nc2cc(C(F)(F)F)c(Cl)cn2)s1 + COc1c(OCCCN2CCOCC2)ccc2c3n(c(=NC(=O)c4cnc(N)nc4)nc12)CCN3 | 171881-019-R-J1-PDC tumor spheroid viability | 5.88 |
| CC(Cn1ccc(-c2ccc(C#N)c(Cl)c2)n1)NC(=O)c1cc(C(C)O)[nH]n1 (stereo not given) + CC(Nc1ccc2c(c1)OCCn1cc(N3C(=O)OCC3C(F)F)nc1-2)C(N)=O | 171881-019-R-J1-PDC tumor spheroid viability | 38.5 |
| CCN1CCN(Cc2ccc(Nc3ncc(F)c(-c4cc(F)c5nc(C)n(C(C)C)c5c4)n3)nc2)CC1 + COc1c(OCCCN2CCOCC2)ccc2c3n(c(=NC(=O)c4cnc(N)nc4)nc12)CCN3 | 171881-019-R-J1-PDC tumor spheroid viability | 16 |

----------
Test system: 171881-019-R-J1-PDC tumor spheroid viability
test: Anticancer human tumor 171881-019-R-J1-PDC cell line growth inhibition [PI3K];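 further: spheroids exposed to compound for 7 days before viability read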;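 on viability, T/C: 100% = DMSO vehicle-treated spheroids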
test.settings: second compound 0.00316 µM; first compound 0.000316 µM; stronger effect = lower value; spheroids with HUVEC and MSC
In this section, each of the molecules is paired with its reported viability, T/C.
assay.endpoint: viability, T/C

| molecule | value |
| --- | --- |
| Cn1ncnc1[C@H]1c2n[nH]c(=O)c3cc(F)cc(c23)N[C@@H]1c1ccc(F)cc1 + COc1c(OCCCN2CCOCC2)ccc2c3n(c(=NC(=O)c4cnc(N)nc4)nc12)CCN3 | 65.8% |
| CC(=O)c1c(C)c2cnc(Nc3ccc(N4CCNCC4)cn3)nc2n(C2CCCC2)c1=O + CC(Nc1ccc2c(c1)OCCn1cc(N3C(=O)OCC3C(F)F)nc1-2)C(N)=O | 85.7% |
| CC(C)n1nc(-c2ccc3oc(N)nc3c2)c2c(N)ncnc21 + COc1c(OCCCN2CCOCC2)ccc2c3n(c(=NC(=O)c4cnc(N)nc4)nc12)CCN3 | 61.1% |

----------
Tested on: 171881-019-R-J1-PDC tumor spheroid viability
test: Anticancer human tumor 171881-019-R-J1-PDC cell line growth inhibition [PI3K]; active = viability on the fitted dose curve at most 10% of control; inactive = the rest;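 further: spheroids exposed to compound for 7 days before viability read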
test.settings: second compound 0.316 µM; first compound 0.316 µM; spheroids with HUVEC and MSC
Classes used: true (active), false (inactive)

| molecule | classification |
| --- | --- |
| CC1(C)CCC(CN2CCN(c3ccc(C(=O)NS(=O)(=O)c4ccc(NCC5CCOCC5)c([N+](=O)[O-])c4)c(Oc4cnc5[nH]ccc5c4)c3)CC2)=C(c2ccc(Cl)cc2)C1 + COc1c(OCCCN2CCOCC2)ccc2c3n(c(=NC(=O)c4cnc(N)nc4)nc12)CCN3 | true |
| CCCS(=O)(=O)Nc1ccc(F)c(C(=O)c2c[nH]c3ncc(-c4ccc(Cl)cc4)cc23)c1F + CC(Nc1ccc2c(c1)OCCn1cc(N3C(=O)OCC3C(F)F)nc1-2)C(N)=O | false |
| CCN1CCN(Cc2ccc(Nc3ncc(F)c(-c4cc(F)c5nc(C)n(C(C)C)c5c4)n3)nc2)CC1 + COc1c(OCCCN2CCOCC2)ccc2c3n(c(=NC(=O)c4cnc(N)nc4)nc12)CCN3 | true |

----------
System: 171881-019-R-J1-PDC tumor spheroid viability
test: Anticancer human tumor 171881-019-R-J1-PDC cell line growth inhibition [PI3K];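 further: spheroids exposed to compound for 7 days before viability read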;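 on viability, T/C: 100% = DMSO vehicle-treated spheroids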
test.settings: second compound 3.16 µM; first compound 3.16 µM; stronger effect = lower value; spheroids with HUVEC and MSC
Listing of recorded viability, T/C by entry.
assay.endpoint: viability, T/C

| molecule | assay.endpoint | value |
| --- | --- | --- |
| CC1(C)CCC(CN2CCN(c3ccc(C(=O)NS(=O)(=O)c4ccc(NCC5CCOCC5)c([N+](=O)[O-])c4)c(Oc4cnc5[nH]ccc5c4)c3)CC2)=C(c2ccc(Cl)cc2)C1 + CC(Nc1ncnc2nc[nH]c12)c1cc2cccc(Cl)c2c(=O)n1-c1ccccc1 | viability, T/C | 44.6% |
| C=CC(=O)N1CCN(c2nc(=O)n(-c3c(C)ccnc3C(C)C)c3nc(-c4c(O)cccc4F)c(F)cc23)C(C)C1 (stereo unspecified) + Cc1nc(NC(=O)N2CCCC2C(N)=O)sc1-c1ccnc(C(C)(C)C(F)(F)F)c1 | viability, T/C | 16.8% |
| CC(Cn1ccc(-c2ccc(C#N)c(Cl)c2)n1)NC(=O)c1cc(C(C)O)[nH]n1 (stereo unspecified) + Cc1nc(NC(=O)N2CCCC2C(N)=O)sc1-c1ccnc(C(C)(C)C(F)(F)F)c1 | viability, T/C | 14.2% |
| Cn1ncc(Cl)c1-c1cc(C(=O)NC(CN)Cc2cccc(F)c2)sc1Cl (stereo unspecified) + Cc1nc(NC(=O)N2CCCC2C(N)=O)sc1-c1ccnc(C(C)(C)C(F)(F)F)c1 | viability, T/C | 6.34% |
| C[C@@H](NC(=O)c1ncnc(N)c1Cl)c1ncc(C(=O)Nc2cc(C(F)(F)F)c(Cl)cn2)s1 + Cc1nc(NC(=O)N2CCCC2C(N)=O)sc1-c1ccnc(C(C)(C)C(F)(F)F)c1 | viability, T/C | 5.29% |
| Cn1ncc(Cl)c1-c1cc(C(=O)NC(CN)Cc2cccc(F)c2)sc1Cl (stereo unspecified) + CC(Nc1ncnc2nc[nH]c12)c1cc2cccc(Cl)c2c(=O)n1-c1ccccc1 | viability, T/C | 9% |
| CCCS(=O)(=O)Nc1ccc(F)c(C(=O)c2c[nH]c3ncc(-c4ccc(Cl)cc4)cc23)c1F + CC(Nc1ncnc2nc[nH]c12)c1cc2cccc(Cl)c2c(=O)n1-c1ccccc1 | viability, T/C | 103% |
| C=CC(=O)N1CCN(c2nc(=O)n(-c3c(C)ccnc3C(C)C)c3nc(-c4c(O)cccc4F)c(F)cc23)C(C)C1 (stereo unspecified) + CC(Nc1ncnc2nc[nH]c12)c1cc2cccc(Cl)c2c(=O)n1-c1ccccc1 | viability, T/C | 88.2% |
| CC1(C)CCC(Nc2ncc(C(F)(F)F)c(-c3c[nH]c4c(P(C)(C)=O)c(C#N)ccc34)n2)CN1 (stereo unspecified) + CC(Nc1ncnc2nc[nH]c12)c1cc2cccc(Cl)c2c(=O)n1-c1ccccc1 | viability, T/C | 65.3% |
| Cn1nccc1Nc1nccc(-c2ccn(C(CO)c3ccc(Cl)c(F)c3)c(=O)c2)n1 (stereo unspecified) + Cc1nc(NC(=O)N2CCCC2C(N)=O)sc1-c1ccnc(C(C)(C)C(F)(F)F)c1 | viability, T/C | 2.1% |
| Cn1nccc1Nc1nccc(-c2ccn(C(CO)c3ccc(Cl)c(F)c3)c(=O)c2)n1 (stereo unspecified) + CC(Nc1ncnc2nc[nH]c12)c1cc2cccc(Cl)c2c(=O)n1-c1ccccc1 | viability, T/C | 14.9% |

Source of measurements: PubChem BioAssay AID1963986
